# test target: Mu-type opioid receptor (Rattus norvegicus, UniProt P33535)
# Sequence (P33535 whole entry): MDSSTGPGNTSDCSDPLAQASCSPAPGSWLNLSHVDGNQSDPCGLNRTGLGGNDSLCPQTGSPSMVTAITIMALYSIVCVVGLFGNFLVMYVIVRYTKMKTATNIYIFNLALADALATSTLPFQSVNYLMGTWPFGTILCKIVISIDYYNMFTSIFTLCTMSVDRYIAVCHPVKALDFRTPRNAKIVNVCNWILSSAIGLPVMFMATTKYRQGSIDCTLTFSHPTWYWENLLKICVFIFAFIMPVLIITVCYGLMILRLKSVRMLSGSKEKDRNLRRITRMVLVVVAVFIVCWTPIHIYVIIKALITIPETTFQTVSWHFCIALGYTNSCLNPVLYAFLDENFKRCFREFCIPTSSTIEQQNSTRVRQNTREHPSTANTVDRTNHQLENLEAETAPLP
pKi: −log10 of the molar value.
This listing pairs molecules with measured pKi.
outcome measure: pKi

1) CC1[C@H]2Cc3ccc(O)cc3[C@]1(C)CCN2CCCc1ccccc1 (stereo not given in full) : 6.08
2) CCC12CCN(CC3CC3)C(C(=O)c3ccc(O)cc31)C2C (stereo not given) : 6.16

----------
# test target: Kappa-type opioid receptor (Cavia porcellus)
# Sequence (P41144 whole entry): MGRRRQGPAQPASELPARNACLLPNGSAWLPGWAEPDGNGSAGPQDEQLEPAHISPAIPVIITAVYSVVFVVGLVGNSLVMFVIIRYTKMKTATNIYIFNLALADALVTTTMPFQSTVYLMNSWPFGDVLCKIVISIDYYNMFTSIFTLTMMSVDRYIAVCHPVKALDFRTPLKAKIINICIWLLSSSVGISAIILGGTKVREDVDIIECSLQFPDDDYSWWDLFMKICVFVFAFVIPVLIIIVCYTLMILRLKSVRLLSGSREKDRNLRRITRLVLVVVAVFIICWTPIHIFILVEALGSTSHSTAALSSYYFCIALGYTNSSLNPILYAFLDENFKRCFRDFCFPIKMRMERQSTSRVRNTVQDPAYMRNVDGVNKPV
# test description: Binding affinity for kappa opioid receptor was evaluated by displacing [3H]- diprenorphine
outcome measure: Ki (µM)

1. CC1[C@H]2Cc3ccc(O)cc3[C@]1(C)CCN2CCCc1ccccc1 (stereo partly drawn) : 1.12
2. CCOC(=O)[C@]1(c2ccccc2)CC1CN1CC[C@@]2(C)c3cc(O)ccc3C[C@@H]1[C@@H]2C (stereo partly drawn) : 4.43
3. COC(=O)[C@@]1(c2ccccc2)C[C@@H]1CN1CC[C@@]2(C)c3cc(O)ccc3C[C@@H]1[C@@H]2C : 2.64
4. COC(=O)[C@]1(c2ccccc2)C[C@@H]1CN1CC[C@@]2(C)c3cc(O)ccc3C[C@@H]1[C@@H]2C : 0.866
5. COC(=O)[C@]1(c2ccccc2)C[C@H]1CN1CC[C@@]2(C)c3cc(O)ccc3C[C@@H]1[C@@H]2C : 0.24
6. CCCOC(=O)[C@]1(c2ccccc2)CC1CN1CC[C@@]2(C)c3cc(O)ccc3C[C@@H]1[C@@H]2C (stereo partly drawn) : 6.43

----------
# test target: Mu-type opioid receptor (Rattus norvegicus, UniProt P33535)
pKi: −log10 of the molar value.
This listing pairs compounds with measured pKi.
outcome measure: pKi

1. C[C@H]1[C@H]2Cc3ccc(O)cc3[C@]1(C)CCN2CC1C[C@]1(C(=O)O)c1ccccc1 (some centres undefined) : < 4.60
2. COC(=O)[C@]1(c2ccccc2)C[C@@H]1CN1CC[C@@]2(C)c3cc(O)ccc3C[C@@H]1[C@@H]2C : < 4.60
3. COC(=O)[C@@]1(c2ccccc2)C[C@@H]1CN1CC[C@@]2(C)c3cc(O)ccc3C[C@@H]1[C@@H]2C : < 4.60
4. CCCOC(=O)[C@]1(c2ccccc2)CC1CN1CC[C@@]2(C)c3cc(O)ccc3C[C@@H]1[C@@H]2C (some centres undefined) : < 4.60

----------
Mu-type opioid receptor (Rattus norvegicus, UniProt P33535) measurements of Ki, listed per entry.
outcome measure: Ki

1) COC(=O)[C@]1(c2ccccc2)C[C@H]1CN1CC[C@@]2(C)c3cc(O)ccc3C[C@@H]1[C@@H]2C : > 25 µM
2) CCCCOC(=O)[C@]1(c2ccccc2)CC1CN1CC[C@@]2(C)c3cc(O)ccc3C[C@@H]1[C@@H]2C (stereo partly drawn) : > 25 µM
3) CCOC(=O)[C@]1(c2ccccc2)CC1CN1CC[C@@]2(C)c3cc(O)ccc3C[C@@H]1[C@@H]2C (stereo partly drawn) : > 25 µM

Ref: ChEMBL document CHEMBL1126934
